Data credit: patent US10039747B2

Here the recorded pIC50 is given for each entry.
- assay.system: H+/K+-ATPase (Sus scrofa, UniProt P19156)
- Construct: reaction buffer solution (60 mmol/l Tris-HCl buffer solution, pH 7.4) containing hog gastric vesicle
- Sequence (P19156 2-1034 limits assumed): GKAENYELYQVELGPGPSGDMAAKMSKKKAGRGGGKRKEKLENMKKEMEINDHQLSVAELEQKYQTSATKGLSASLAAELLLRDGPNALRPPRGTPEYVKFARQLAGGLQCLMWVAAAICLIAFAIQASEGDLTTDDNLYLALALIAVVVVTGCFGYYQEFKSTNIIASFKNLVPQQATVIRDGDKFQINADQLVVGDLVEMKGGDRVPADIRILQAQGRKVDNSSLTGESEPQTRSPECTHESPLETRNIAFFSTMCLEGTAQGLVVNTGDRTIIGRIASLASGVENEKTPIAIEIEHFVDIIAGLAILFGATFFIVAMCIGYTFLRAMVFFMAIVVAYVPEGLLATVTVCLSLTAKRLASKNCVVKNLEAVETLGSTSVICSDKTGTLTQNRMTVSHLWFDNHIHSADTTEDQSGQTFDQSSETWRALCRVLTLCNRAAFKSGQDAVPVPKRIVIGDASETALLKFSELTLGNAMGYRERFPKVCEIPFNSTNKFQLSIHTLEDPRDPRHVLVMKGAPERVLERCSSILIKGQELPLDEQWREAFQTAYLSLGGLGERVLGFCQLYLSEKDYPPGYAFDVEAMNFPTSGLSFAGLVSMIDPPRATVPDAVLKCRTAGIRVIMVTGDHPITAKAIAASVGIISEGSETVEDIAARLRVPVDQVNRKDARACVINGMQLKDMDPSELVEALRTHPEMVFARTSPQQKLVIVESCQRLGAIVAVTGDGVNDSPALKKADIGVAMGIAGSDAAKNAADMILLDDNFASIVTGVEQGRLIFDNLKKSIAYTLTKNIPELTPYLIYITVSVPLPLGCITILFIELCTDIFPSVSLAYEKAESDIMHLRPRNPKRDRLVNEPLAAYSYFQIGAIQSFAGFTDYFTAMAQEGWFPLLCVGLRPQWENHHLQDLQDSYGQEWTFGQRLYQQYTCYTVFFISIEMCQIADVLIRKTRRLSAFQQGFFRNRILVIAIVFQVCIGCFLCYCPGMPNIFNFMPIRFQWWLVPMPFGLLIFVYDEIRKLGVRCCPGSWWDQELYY
- Sequence (P18434 whole entry partner): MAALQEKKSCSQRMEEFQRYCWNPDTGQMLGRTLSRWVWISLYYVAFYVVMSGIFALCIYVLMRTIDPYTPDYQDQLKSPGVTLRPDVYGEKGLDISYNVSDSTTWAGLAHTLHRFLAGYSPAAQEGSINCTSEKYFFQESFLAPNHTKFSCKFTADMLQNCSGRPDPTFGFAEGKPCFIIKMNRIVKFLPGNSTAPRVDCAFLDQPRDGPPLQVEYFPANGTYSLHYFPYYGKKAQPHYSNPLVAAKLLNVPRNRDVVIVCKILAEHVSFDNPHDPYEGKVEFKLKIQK
- procedure.details: Inhibition of proton pump (H+/K+-ATPase) activity in hog gastric vesicles
- protocol.conditions: K+ specific H+/K+-ATPase activity, pH 7.4, 37° C. for 40 minutes, malachite green
Field pIC50 (float): negative decimal logarithm of the concentration in molar.

Check out these entries, answers already filled in.
CN(C)C1CCCc2c1cn(S(=O)(=O)c1cccc(C(F)(F)F)c1)c2-c1ccccc1F (centres unmarked) [Example 139]
5.04
CNC1CCc2c1cn(S(=O)(=O)c1cccc(C)c1)c2-c1ccc(C)cc1F (centres unmarked) [Example 52]
6.46
CNC1CCCCc2c1cn(S(=O)(=O)c1cccnc1)c2-c1ccccc1F (centres unmarked) [Example 146]
5.35
CNC1CCc2c1cn(S(=O)(=O)c1cccc(Cl)c1Cl)c2-c1ccccc1F (centres unmarked) [Example 64]
6.08
CNC1CCc2c1cn(S(=O)(=O)c1cccc(Cl)c1)c2-c1ccc(F)cc1F (centres unmarked) [Example 19]
6.55
COc1cccc(S(=O)(=O)n2cc3c(c2-c2ccccc2F)CCCC3N(C)C)c1 (centres unmarked) [Example 140]
5.15
CNC1CCc2c1cn(S(=O)(=O)c1cccnc1)c2-c1cc(Cl)ccc1Cl (centres unmarked) [Example 92]
6.46

Okay, now this compound:
Data point: CNC1CCc2c1cn(S(=O)(=O)c1cccnc1)c2-c1ccccc1Cl (centres unmarked) [Example 89] ; pIC50 = 5.92

###

Each entry below carries its reported pIC50.
- assay.system: H+/K+-ATPase (Sus scrofa)
- Construct: reaction buffer solution (60 mmol/l Tris-HCl buffer solution, pH 7.4) containing hog gastric vesicle
- procedure.details: Inhibition of proton pump (H+/K+-ATPase) activity in hog gastric vesicles
- protocol.conditions: K+ specific H+/K+-ATPase activity, pH 7.4, 37° C. for 40 minutes, malachite green
- Experimental: 1) Preparation of Gastric Vesicles Gastric vesicles were prepared from hog stomach by centrifugation (Edd C. Rabon et al., Preparation of Gastric H^+,K^+-ATPase, Methods in enzymology, vol. 157 Academic Press Inc., (1988), pp. 649-654). The protein contents of the prepared gastric vesicles were quantified with a Bicinchoninic Acid (BCA) kit. […] The effect of inhibiting proton pump activity by the compound of the present invention was measured in a 96-well plate. […]
In textbook form, pIC50 equals minus log to base ten of the concentration in mol/L.

CNC1CCc2c1cn(S(=O)(=O)c1cccc(Cl)c1)c2-c1ccncc1 (stereo not shown) [Example 42]
5.27
CNC1CCc2c1cn(S(=O)(=O)c1cc(Cl)cc(Cl)c1)c2-c1ccc(C)cc1F (stereo not shown) [Example 78]
6.34
CNC1CCCc2c1cn(S(=O)(=O)c1cc(Cl)ccc1F)c2-c1ccccc1F (stereo not shown) [Example 126]
5.40

Next, consider the following compound.
CNC1CCCc2c1cn(S(=O)(=O)c1cccc(OC)c1)c2-c1ccccc1F (stereo not shown) [Example 122] tested on H+/K+-ATPase (Sus scrofa) gave pIC50: 5.82

###

- assay.system: H+/K+-ATPase (Sus scrofa)
- Construct: reaction buffer solution (60 mmol/l Tris-HCl buffer solution, pH 7.4) containing hog gastric vesicle
- procedure.details: Inhibition of proton pump (H+/K+-ATPase) activity in hog gastric vesicles
- protocol.conditions: K+ specific H+/K+-ATPase activity, pH 7.4, 37° C. for 40 minutes, malachite green
Let's look at some compounds and their measured IC50.
Reply numerically in µM, unit not repeated.

Please review the entries below; each comes with its answer.
CNC1CCCc2c1cn(S(=O)(=O)c1cccnc1)c2-c1ccccc1F (stereo not drawn) [Example 131]
1.5
CNC1CCc2c1cn(S(=O)(=O)c1cccnc1)c2-c1ccc(C)cc1F (stereo not drawn) [Example 90]
0.52
CNC1CCc2c1cn(S(=O)(=O)c1ccccc1)c2-c1ccccc1F (stereo not drawn) [Example 43]
0.43
CNC1CCc2c1cn(S(=O)(=O)c1cccc(Cl)c1)c2-c1cccc(F)c1 (stereo not drawn) [Example 9]
0.83
CNC1CCc2c1cn(S(=O)(=O)c1ccccc1)c2-c1ccc(C)cc1F (stereo not drawn) [Example 44]
0.65

For CNC1CCc2c1cn(S(=O)(=O)c1cccc(Cl)c1)c2-c1ccc(OC(F)(F)F)cc1 (stereo not drawn) [Example 17] the compound record lists IC50 as 1.39

The compound identified as CNC1CCc2c1cn(Cc1ccccc1)c2-c1ccccc1F (stereo not drawn) [Example 109] registered its IC50 at 6.24

// recorded IC50 for CNC1CCc2c1cn(S(=O)(=O)c1ccccc1Cl)c2-c1ccc(F)cc1C (stereo not drawn) [Example 49] : 2.17

Documented IC50 of CNC1CCc2c1cn(S(=O)(=O)c1cccc(F)c1)c2-c1ccc(F)cc1F (stereo not drawn) [Example 113] : 0.31

Sure, the documented IC50 for CNC1CCc2c1cn(S(=O)(=O)c1cccc(Cl)c1)c2-c1ccc(N2CCCC2)nc1 (stereo not drawn) [Example 40] is 7.69

###

This listing pairs molecules with measured pIC50.
- assay.system: H+/K+-ATPase (Sus scrofa)
- Construct: reaction buffer solution (60 mmol/l Tris-HCl buffer solution, pH 7.4) containing hog gastric vesicle
- procedure.details: Inhibition of proton pump (H+/K+-ATPase) activity in hog gastric vesicles
- protocol.conditions: K+ specific H+/K+-ATPase activity, pH 7.4, 37° C. for 40 minutes, malachite green
Expect pIC50 as a plain number equal to -log10 of the molar concentration.

Field: example entries. Status: answers known.
CNC1CCc2c1cn(S(=O)(=O)c1cccc(Cl)c1)c2-c1cc(Cl)ccc1F (stereo not shown)
6.35
CNC1CCCc2c1cn(S(=O)(=O)c1cccc(F)c1)c2-c1ccccc1F (stereo not shown)
5.82
CNC1CCc2c1cn(S(=O)(=O)c1cccc(Cl)c1)c2C (stereo not shown)
5.00
CNC1CCc2c1cn(S(=O)(=O)c1cccc(Cl)c1)c2-c1ccc(Cl)cc1F (stereo not shown)
6.27
CNC1CCc2c1cn(S(=O)(=O)c1cccc(Cl)c1)c2-c1ccccc1Cl (stereo not shown)
6.13

Now look at this entry.
Documented pIC50 of CNC1CCc2c1cn(S(=O)(=O)c1cncc(Cl)c1)c2-c1ccccc1F (stereo not shown) : 5.76

###

- assay.system: H+/K+-ATPase (Sus scrofa)
- Construct: reaction buffer solution (60 mmol/l Tris-HCl buffer solution, pH 7.4) containing hog gastric vesicle
- procedure.details: Inhibition of proton pump (H+/K+-ATPase) activity in hog gastric vesicles
- protocol.conditions: K+ specific H+/K+-ATPase activity, pH 7.4, 37° C. for 40 minutes, malachite green
Just a reminder that ties go to FALSE: only IC50 strictly below 2 µM counts as TRUE.

A selection of reference data follows.
CNC1CCc2c1cn(Cc1cccc(Cl)c1)c2-c1ccccc1F (centres unmarked) [Example 107]
FALSE
CNC1CCc2c1cn(S(=O)(=O)c1cccc(Cl)c1)c2-c1ccc(OC)cc1 (centres unmarked) [Example 14]
TRUE
CNC1CCc2c1cn(S(=O)(=O)c1c(Cl)cc(Cl)cc1Cl)c2-c1ccccc1F (centres unmarked) [Example 85]
FALSE

Switching to the query record.
Record CNC1CCc2c1cn(Cc1cccc(C)c1)c2-c1ccccc1F (centres unmarked) [Example 110] : is its IC50 strictly below 2 µM? FALSE

###

- assay.system: H+/K+-ATPase (Sus scrofa)
- Construct: reaction buffer solution (60 mmol/l Tris-HCl buffer solution, pH 7.4) containing hog gastric vesicle
- procedure.details: Inhibition of proton pump (H+/K+-ATPase) activity in hog gastric vesicles
- protocol.conditions: K+ specific H+/K+-ATPase activity, pH 7.4, 37° C. for 40 minutes, malachite green
Measured IC50, listed per entry.
Unit nM implied. Number only.

Below, 2 compounds whose answers are already recorded.
Cc1oc(=O)oc1COC(=O)N(C)C1CCc2c1cn(S(=O)(=O)c1cccc(F)c1)c2-c1ccc(F)cc1F (centres unmarked) [Example 116]
26200
CNC1CCc2c1cn(S(=O)(=O)c1cccc(Cl)c1)c2-c1cc(C)sc1C (centres unmarked) [Example 35]
840

Looking up CNC1CCc2c1cn(S(=O)(=O)c1cccc(F)c1)c2-c1cc(Cl)ccc1Cl (centres unmarked) [Example 51] , I found its IC50 recorded as 650

The reported value for CNC1CCc2c1cn(S(=O)(=O)c1cccc(Cl)c1)c2-c1cc(Cl)c(C)cc1F (centres unmarked) [Example 26] in terms of IC50 is 620

Kindly note the recorded IC50 for CNC1CCc2c1cn(S(=O)(=O)c1cccc(Cl)c1)c2-c1ccccc1C1CC=CC1 (centres unmarked) [Example 6] , which is 1320

Documented IC50 of CN(C)C1CCCc2c1cn(S(=O)(=O)c1cccc(Cl)c1)c2-c1ccccc1F (centres unmarked) [Example 138] : 7100

Field IC50 (entry CNC1CCc2c1cn(S(=O)(=O)c1ccc(OC(F)(F)F)cc1Cl)c2-c1ccccc1F (centres unmarked) [Example 68] ) reads 840

Per the record, CNC1CCc2c1cn(S(=O)(=O)c1cc(Cl)ccc1Cl)c2-c1ccc(F)cc1F (centres unmarked) [Example 71] has IC50 of 670
